# System: Escherichia coli TOP10
# assay.notes: shrunken log2 fold change of peptide-encoding DNA abundance (4.5 h post-induction vs induction); higher = less antimicrobial activity (less host growth inhibition)
# experimental.conditions: time post-induction: 4.5 h; library: site-saturation at positions 5, 18, 19, 20
readout.name: shrunken log2 fold change
Answer field: number only, no words.

Sample answers from the record:
INSERT INTO assay_data (residues, system_under_test, readout_name, numeric_readout) VALUES
  ('RRIRERPPRLPRPRPRPIYRPRP', 'Escherichia coli TOP10', 'shrunken log2 fold change', -0.565),
  ('RRIRTRPPRLPRPRPRPKPNPRP', 'Escherichia coli TOP10', 'shrunken log2 fold change', 0.186),
  ('RRIRSRPPRLPRPRPRPQARPRP', 'Escherichia coli TOP10', 'shrunken log2 fold change', 0.122),
  ('RRIRARPPRLPRPRPRPDNAPRP', 'Escherichia coli TOP10', 'shrunken log2 fold change', 0.311),
  ('RRIRDRPPRLPRPRPRPHQEPRP', 'Escherichia coli TOP10', 'shrunken log2 fold change', -0.281);

Then this sequence:
[Q] Reported shrunken log2 fold change, sequence `RRIRCRPPRLPRPRPRPFEPPRP` : ____
[A] -0.0564

* * *

# Tested on: Escherichia coli TOP10
# assay.notes: shrunken log2 fold change of peptide-encoding DNA abundance (4.5 h post-induction vs induction); higher = less antimicrobial activity (less host growth inhibition)
# experimental.conditions: time post-induction: 4.5 h; library: site-saturation at positions 5, 18, 19, 20
readout.name: shrunken log2 fold change
Response field accepts a number only; no unit should be typed.

Before answering, review these 2 worked examples.
INSERT INTO assay_data (residues, numeric_readout) VALUES
  ('RRIRGRPPRLPRPRPRPAPCPRP', 0.426),
  ('RRIRYRPPRLPRPRPRPMCRPRP', -0.181);

Now, please, on to the next sequence.
[Q] Param readout = shrunken log2 fold change; param system = Escherichia coli TOP10; param query = `RRIRGRPPRLPRPRPRPTELPRP` ; response: value
[A] 0.261

* * *

# Test system: Escherichia coli TOP10
# assay.notes: shrunken log2 fold change of peptide-encoding DNA abundance (4.5 h post-induction vs induction); higher = less antimicrobial activity (less host growth inhibition)
# experimental.conditions: time post-induction: 4.5 h; library: site-saturation at positions 5, 18, 19, 20
Is shrunken log2 fold change at least 0.005? Then true (1). If not, false (0).

INSERT INTO measurements (residues, class_name) VALUES
  ('RRIRTRPPRLPRPRPRPPTSPRP', 'true (1)'),
  ('RRIRNRPPRLPRPRPRPFANPRP', 'false (0)'),
  ('RRIRMRPPRLPRPRPRPQGCPRP', 'false (0)'),
  ('RRIRPRPPRLPRPRPRPDMIPRP', 'true (1)'),
  ('RRIRWRPPRLPRPRPRPHDIPRP', 'false (0)'),
  ('RRIRTRPPRLPRPRPRPLFCPRP', 'false (0)'),
  ('RRIRIRPPRLPRPRPRPFDVPRP', 'false (0)'),
  ('RRIRNRPPRLPRPRPRPMEKPRP', 'false (0)');

[Q] Check the entry `RRIRKRPPRLPRPRPRPSVNPRP` : does shrunken log2 fold change equal or exceed 0.005?
[A] false (0)

[Q] shrunken log2 fold change >= 0.005 for `RRIRARPPRLPRPRPRPKDLPRP` ?
[A] false (0)

[Q] Given `RRIRRRPPRLPRPRPRPEKMPRP` , state whether its shrunken log2 fold change is at least 0.005.
[A] true (1)

* * *

# Tested on: Escherichia coli TOP10
# assay.notes: shrunken log2 fold change of peptide-encoding DNA abundance (4.5 h post-induction vs induction); higher = less antimicrobial activity (less host growth inhibition)
# experimental.conditions: time post-induction: 4.5 h; library: site-saturation at positions 5, 18, 19, 20
readout.name: shrunken log2 fold change
The reply should be a number, written without any unit.

Some sequences with recorded shrunken log2 fold change:
INSERT INTO results (residues, readout_name, numeric_readout) VALUES
  ('RRIRKRPPRLPRPRPRPRGNPRP', 'shrunken log2 fold change', 0.258),
  ('RRIRTRPPRLPRPRPRPCCAPRP', 'shrunken log2 fold change', 0.125),
  ('RRIRRRPPRLPRPRPRPVIFPRP', 'shrunken log2 fold change', 0.145),
  ('RRIRVRPPRLPRPRPRPMWLPRP', 'shrunken log2 fold change', 0.0511),
  ('RRIRCRPPRLPRPRPRPGNDPRP', 'shrunken log2 fold change', 0.00582),
  ('RRIRDRPPRLPRPRPRPRYGPRP', 'shrunken log2 fold change', -0.0472),
  ('RRIRGRPPRLPRPRPRPFDIPRP', 'shrunken log2 fold change', 0.198),
  ('RRIRMRPPRLPRPRPRPPAHPRP', 'shrunken log2 fold change', 0.721),
  ('RRIRTRPPRLPRPRPRPMFYPRP', 'shrunken log2 fold change', -0.359),
  ('RRIRDRPPRLPRPRPRPWKQPRP', 'shrunken log2 fold change', -0.0551);

[Q] Quick one: shrunken log2 fold change of `RRIRYRPPRLPRPRPRPYITPRP` ?
[A] -0.529

[Q] Data request, read-out shrunken log2 fold change, for `RRIRDRPPRLPRPRPRPHEHPRP`
[A] 0.00488

[Q] Need shrunken log2 fold change of `RRIRARPPRLPRPRPRPMWCPRP` , thanks.
[A] 0.172

[Q] Fill in: shrunken log2 fold change of `RRIRNRPPRLPRPRPRPCLEPRP` is ___
[A] 0.000258

[Q] For `RRIRMRPPRLPRPRPRPHAHPRP` , what is its reported shrunken log2 fold change?
[A] -0.0269

* * *

# Test system: Escherichia coli TOP10
# assay.notes: shrunken log2 fold change of peptide-encoding DNA abundance (4.5 h post-induction vs induction); higher = less antimicrobial activity (less host growth inhibition)
# experimental.conditions: time post-induction: 4.5 h; library: site-saturation at positions 5, 18, 19, 20
The following sequences are listed with their measured shrunken log2 fold change values.
Please reply with the number alone, leaving off any unit.

Example entries begin here.
INSERT INTO measurements (residues, system_under_test, readout_name, numeric_readout) VALUES
  ('RRIRIRPPRLPRPRPRPPAFPRP', 'Escherichia coli TOP10', 'shrunken log2 fold change', -0.155),
  ('RRIRARPPRLPRPRPRPTWVPRP', 'Escherichia coli TOP10', 'shrunken log2 fold change', 0.225),
  ('RRIRPRPPRLPRPRPRPYKDPRP', 'Escherichia coli TOP10', 'shrunken log2 fold change', -0.477),
  ('RRIRTRPPRLPRPRPRPGNDPRP', 'Escherichia coli TOP10', 'shrunken log2 fold change', -0.219),
  ('RRIRQRPPRLPRPRPRPVLKPRP', 'Escherichia coli TOP10', 'shrunken log2 fold change', -0.108);

[Q] # lookup: shrunken log2 fold change of `RRIRDRPPRLPRPRPRPEVTPRP`
[A] -0.000921

[Q] Consider the sequence shown here: `RRIRGRPPRLPRPRPRPPRCPRP` What is its recorded shrunken log2 fold change?
[A] 0.951

[Q] Entry `RRIRYRPPRLPRPRPRPQNIPRP` : reported shrunken log2 fold change = ?
[A] -1.24

[Q] Need shrunken log2 fold change of `RRIRERPPRLPRPRPRPSGVPRP` , thanks.
[A] -0.157

[Q] Given the sequence `RRIRPRPPRLPRPRPRPQCKPRP` , what is its reported shrunken log2 fold change?
[A] -0.398

[Q] Which measured shrunken log2 fold change value corresponds to `RRIRLRPPRLPRPRPRPQGVPRP` ?
[A] -0.0316

[Q] Which shrunken log2 fold change value belongs to `RRIRLRPPRLPRPRPRPGLWPRP` ?
[A] 0.863

[Q] Need shrunken log2 fold change of `RRIRDRPPRLPRPRPRPIPMPRP` , thanks.
[A] -0.00947

[Q] # shrunken log2 fold change lookup, item `RRIRGRPPRLPRPRPRPIPSPRP`
[A] 0.485

[Q] # query: shrunken log2 fold change of entry `RRIRQRPPRLPRPRPRPHLQPRP`
[A] -0.0325

* * *

Listing of recorded shrunken log2 fold change by entry.
# Test system: Escherichia coli TOP10
# assay.notes: shrunken log2 fold change of peptide-encoding DNA abundance (4.5 h post-induction vs induction); higher = less antimicrobial activity (less host growth inhibition)
# experimental.conditions: time post-induction: 4.5 h; library: site-saturation at positions 5, 18, 19, 20
Provide a numeric answer; units are not to be included.

[Q] Which shrunken log2 fold change value belongs to `RRIRDRPPRLPRPRPRPDFYPRP` ?
[A] 0.00164

[Q] Name the recorded shrunken log2 fold change for `RRIRFRPPRLPRPRPRPGRLPRP` .
[A] 0.262

* * *

# System: Escherichia coli TOP10;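 also: peptides expressed intracellularly from a pBAD plasmid library in pooled LB shake-flask culture, induced with 0.3% L-arabinose, DNA abundance read by NGS, three biological replicates, DESeq2 with apeglm shrinkage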
# assay.notes: shrunken log2 fold change of peptide-encoding DNA abundance (4.5 h post-induction vs induction); higher = less antimicrobial activity (less host growth inhibition)
# experimental.conditions: time post-induction: 4.5 h; library: site-saturation at positions 5, 18, 19, 20
Assign class 1 whenever shrunken log2 fold change does not fall below -0.2; assign class 0 whenever it does.

Below, 7 sequences whose answers are already recorded.
INSERT INTO results (residues, system_under_test, class_name) VALUES
  ('RRIRYRPPRLPRPRPRPNITPRP', 'Escherichia coli TOP10', 'class 0'),
  ('RRIRARPPRLPRPRPRPDGYPRP', 'Escherichia coli TOP10', 'class 1'),
  ('RRIRWRPPRLPRPRPRPMQPPRP', 'Escherichia coli TOP10', 'class 1'),
  ('RRIRDRPPRLPRPRPRPHKSPRP', 'Escherichia coli TOP10', 'class 1'),
  ('RRIRSRPPRLPRPRPRPQKFPRP', 'Escherichia coli TOP10', 'class 1'),
  ('RRIRHRPPRLPRPRPRPHAGPRP', 'Escherichia coli TOP10', 'class 0'),
  ('RRIRPRPPRLPRPRPRPVVMPRP', 'Escherichia coli TOP10', 'class 1');

Next sequence, please.
[Q] Does `RRIRYRPPRLPRPRPRPPTWPRP` have a reported shrunken log2 fold change of at least -0.2?
[A] class 1
